Origin of measurements: patent US4994473A

system: Aphis fabae; test: Black bean aphid spray test on nasturtium plants, mortality after 48 hours; format: in vivo, Black Bean Aphid Aphis fabae (Scop.); details: mixed ages, percent of test compound in sprayed solution
Assay Readout: LC50 BA

Look up LC50 BA: C=C(C)C(=Nc1ccc(Cl)nc1)OCc1ccc(F)c(Oc2ccccc2)c1 [Compound 49]
< 0.05%

Reported LC50 BA, compound Cc1cc(N=C(OCc2cccc(Oc3ccccc3)c2)C(C)C)no1 [Compound 8] : ____
> 0.05%

Consider the compound CCCCc1nc2ccc(N=C(OCc3cccc(Oc4ccccc4)c3)C(C)C)cc2o1 [Compound 26] and give its measured LC50 BA.
0.05%

Recorded LC50 BA for CC(C)(Cl)C(=Nc1ccc(Br)nc1)OCc1cccc(Oc2ccccc2)c1 [Compound 12] , please?
0.05%

I am curious: what LC50 BA value has been reported for CC(C)(Cl)C(=Nc1nnc(C(F)(F)F)s1)OCc1cccc(Oc2ccccc2)c1 [Compound 9] ?
> 0.05%

Please give the measured LC50 BA for this compound: CC(C)C(=Nc1ccc(OCC(F)(F)F)nc1)OCc1cccc(Oc2ccc(Cl)cc2)n1 [Compound 46]
0.0003%

If you can, please state the reported LC50 BA value of CC(C)C(=Nc1c(F)c(F)nc(F)c1F)OCc1cccc(Oc2ccccc2)c1 [Compound 6] .
> 0.05%

// query LC50 BA value for entry CC(C)C(=Nc1ccc2nc(-c3ccccc3)oc2c1)OCc1cccc(Oc2ccccc2)c1 [Compound 28]
> 0.05%

Record request: LC50 BA value, item CC(C)C(=Nc1ccc(F)nc1)OCc1cccc(Oc2ccccc2)c1 [Compound 5]
0.003%

Value lookup for LC50 BA; key = C=C(C)C(=Nc1ccc(Cl)nc1)OCc1cccc(Oc2ccccc2)c1 [Compound 47]
0.05%

Given CC(C)C(=Nc1ccc(OCC(F)(F)F)nc1)OCc1cccc(Oc2ccc(Cl)cc2)c1 [Compound 39] , state its recorded LC50 BA.
0.001%

* * *

test system: Musca domestica; assay: Housefly contact test, mortality after 48 hours; format: in vivo, Housefly Musca domestica; details: μg of the test compound per 25 female flies
So I've got a bunch of molecules here, and I need their LC50 HF values.

Suppose we examine the molecule CC(C)(Cl)C(=Nc1nnc(C(F)(F)F)s1)OCc1cccc(Oc2ccccc2)c1 ; what LC50 HF value has been reported?
> 100 µg

Fill in the blank: the reported LC50 HF of CC(C)C(=Nc1ccc(OCC(F)(F)F)nc1)OCc1cccc(Oc2ccc(F)cc2)c1 is ____.
> 100 µg

Which LC50 HF reading was recorded for the molecule CC(C)C(=Nc1ccc2nc(-c3ccccc3)oc2c1)OCc1cccc(Oc2ccccc2)c1 ?
> 100 µg

* * *

Hi there, I'd appreciate the recorded LC50 2-SM A for every entry that follows.
test system: Tetranychus urticae; assay: Two-spotted mite acaricidal test on pinto bean plants; format: in vivo, two-spotted mite Tetranychus urticae (Koch); settings: adults, percent concentration in solution, 5-7 days
Please state the figure in %; there is no need to write the unit.

Any idea what LC50 2-SM A was measured for CC(C)C(=Nc1ccc(OCC(F)(F)F)nc1)OCc1cccc(Oc2ccc(Cl)cc2)n1 ?
0.006

Which LC50 2-SM A value belongs to CC(C)C(=Nc1ccc(OCC(F)(F)F)nc1)OCc1ccc(F)c(Oc2ccccc2)c1 ?
0.006

* * *

tested on: Tetranychus urticae; assay: Two-spotted mite acaricidal test on pinto bean plants; format: in vivo, two-spotted mite Tetranychus urticae (Koch); conditions: adults, percent concentration in solution, 5-7 days
Assay Readout: LC50 2-SM A

Report LC50 2-SM A for CC(C)C(=Nc1ccc(Cl)nc1)OCc1cccc(Oc2ccc(F)cc2)c1 tested on Tetranychus urticae.
> 0.05%

Checklist item: LC50 2-SM A tested on Tetranychus urticae, entry CC(C)C(=Nc1cncc(C(F)(F)F)c1)OCc1cccc(Oc2ccccc2)c1 , value?
> 0.05%

Request - read-out LC50 2-SM A | tested on Tetranychus urticae | compound CC(C)C(=Nc1ccc(Cl)nc1Cl)OCc1cccc(Oc2ccccc2)c1
> 0.05%
